measured target: IKZF2 (Homo sapiens (Human), UniProt Q96SW2+Q9UKS7)
Sequence (Q9UKS7 whole entry): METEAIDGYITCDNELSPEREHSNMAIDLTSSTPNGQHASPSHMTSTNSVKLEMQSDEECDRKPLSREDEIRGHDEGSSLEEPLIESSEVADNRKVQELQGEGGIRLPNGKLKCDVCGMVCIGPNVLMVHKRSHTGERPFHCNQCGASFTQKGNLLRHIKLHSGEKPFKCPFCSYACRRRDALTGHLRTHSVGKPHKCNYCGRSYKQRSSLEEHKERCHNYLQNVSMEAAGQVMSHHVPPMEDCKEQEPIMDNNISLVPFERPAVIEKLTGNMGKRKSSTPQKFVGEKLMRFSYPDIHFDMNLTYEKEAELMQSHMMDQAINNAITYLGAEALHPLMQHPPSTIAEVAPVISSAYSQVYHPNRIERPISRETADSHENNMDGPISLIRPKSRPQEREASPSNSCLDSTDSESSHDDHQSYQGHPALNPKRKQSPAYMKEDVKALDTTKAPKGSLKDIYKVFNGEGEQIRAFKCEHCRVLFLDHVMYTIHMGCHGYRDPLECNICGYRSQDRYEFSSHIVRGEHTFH
Sequence (Q96SW2 whole entry): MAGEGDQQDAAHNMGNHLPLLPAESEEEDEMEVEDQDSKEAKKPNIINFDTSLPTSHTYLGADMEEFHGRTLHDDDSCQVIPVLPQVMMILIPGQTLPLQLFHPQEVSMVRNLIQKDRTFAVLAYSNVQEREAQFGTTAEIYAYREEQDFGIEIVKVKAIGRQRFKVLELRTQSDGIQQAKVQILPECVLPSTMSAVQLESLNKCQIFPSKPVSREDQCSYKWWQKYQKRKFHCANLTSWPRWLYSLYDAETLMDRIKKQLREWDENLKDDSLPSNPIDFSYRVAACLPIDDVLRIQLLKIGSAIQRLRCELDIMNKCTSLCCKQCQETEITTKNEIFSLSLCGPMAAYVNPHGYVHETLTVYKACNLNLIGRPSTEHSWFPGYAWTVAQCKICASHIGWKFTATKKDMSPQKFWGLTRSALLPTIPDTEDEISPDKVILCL
Sequence (Q16531 2-1140 partner): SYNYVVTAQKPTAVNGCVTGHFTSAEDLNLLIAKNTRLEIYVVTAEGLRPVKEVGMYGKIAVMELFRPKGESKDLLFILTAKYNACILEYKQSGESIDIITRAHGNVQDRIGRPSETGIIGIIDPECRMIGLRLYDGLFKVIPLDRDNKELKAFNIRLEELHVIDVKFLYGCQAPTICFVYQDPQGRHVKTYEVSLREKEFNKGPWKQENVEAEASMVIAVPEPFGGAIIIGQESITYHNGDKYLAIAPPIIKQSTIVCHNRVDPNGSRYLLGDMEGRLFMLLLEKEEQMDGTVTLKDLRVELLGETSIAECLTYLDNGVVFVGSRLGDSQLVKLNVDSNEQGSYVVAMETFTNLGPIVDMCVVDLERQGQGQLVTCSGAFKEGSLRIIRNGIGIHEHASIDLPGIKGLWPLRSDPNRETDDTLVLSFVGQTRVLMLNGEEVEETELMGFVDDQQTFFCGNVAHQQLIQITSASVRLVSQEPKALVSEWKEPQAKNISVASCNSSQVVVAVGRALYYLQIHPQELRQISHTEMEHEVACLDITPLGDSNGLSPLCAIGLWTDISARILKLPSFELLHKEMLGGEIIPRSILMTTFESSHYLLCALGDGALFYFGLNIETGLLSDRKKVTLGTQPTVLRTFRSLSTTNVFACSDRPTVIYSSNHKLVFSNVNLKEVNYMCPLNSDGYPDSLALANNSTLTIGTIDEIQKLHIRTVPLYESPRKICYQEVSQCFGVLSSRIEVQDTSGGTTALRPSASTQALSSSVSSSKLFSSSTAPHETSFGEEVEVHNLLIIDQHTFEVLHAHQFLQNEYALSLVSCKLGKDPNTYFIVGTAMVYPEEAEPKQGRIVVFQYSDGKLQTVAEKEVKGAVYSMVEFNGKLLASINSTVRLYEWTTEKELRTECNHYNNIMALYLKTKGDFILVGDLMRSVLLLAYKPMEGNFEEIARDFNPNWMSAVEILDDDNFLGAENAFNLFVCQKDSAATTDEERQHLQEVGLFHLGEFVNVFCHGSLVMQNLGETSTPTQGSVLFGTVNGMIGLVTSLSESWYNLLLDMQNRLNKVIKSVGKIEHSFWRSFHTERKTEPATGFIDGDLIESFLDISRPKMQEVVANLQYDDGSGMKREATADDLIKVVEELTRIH
assay name: In vitro IKZF2 Western Blot Assay in Jurkat cells
Type: cell-based
settings: 24 hrs, 0.001 μM, read-out: IKZF2 degradation (%) @ μM 0.001
A collection of molecules and their measured inhibition at 0.001 µM

INSERT INTO measurements (molecule, result) VALUES
  ('O=C1CCC(N2Cc3cc(-c4cc(CN5CCC(c6ccccc6)CC5)cn5ccnc45)ccc3C2=O)C(=O)N1 (stereo not drawn) [Example 47]', '30 to 50%'),
  ('CC(C)(NCc1cc(-c2ccc3c(c2)CN(C2CCC(=O)NC2=O)C3=O)c2nccn2c1)c1ccccc1 (stereo not drawn) [Example 46]', '< 30%'),
  ('Cc1ccccc1CCNCc1cc(-c2ccc3c(c2)CN(C2CCC(=O)NC2=O)C3=O)c2nccn2c1 (stereo not drawn) [Example 42]', '< 30%');

In one line, give reported inhibition at 0.001 µM of the entry O=C1CCC(N2Cc3cc(-c4cc(CN5CC(c6ccccc6)C5)cn5ccnc45)ccc3C2=O)C(=O)N1 (stereo not drawn) [Example 48] .
< 30%

In one line, give reported inhibition at 0.001 µM of the entry O=C1CCC(N2Cc3cc(-c4cc(CN5CCCCC5)cn5ccnc45)ccc3C2=O)C(=O)N1 (stereo not drawn) [Example 33] .
< 30%

In one line, give reported inhibition at 0.001 µM of the entry CC1(C)CCN(Cc2cc(-c3ccc4c(c3)CN(C3CCC(=O)NC3=O)C4=O)c3nccn3c2)CC1 (stereo not drawn) [Example 36] .
30 to 50%

In one line, give reported inhibition at 0.001 µM of the entry O=C1CCC(N2Cc3cc(-c4cc(CNCCc5ccccc5Cl)cc5cncn45)ccc3C2=O)C(=O)N1 (stereo not drawn) [Example 21] .
30 to 50%

====

measured target: IKZF2 (Homo sapiens (Human), UniProt Q96SW2+Q9UKS7)
assay name: In vitro IKZF2 FACS Assay in Jurkat cells
Assay type: cell-based
settings: 24 hrs, maximal degradation percentage
reported property: Dmax

Would you please look over these solved cases?
INSERT INTO results (molecule, result) VALUES
  ('O=C1CCC(N2Cc3cc(-c4cc(CNCc5cccc6ccccc56)cc5cncn45)ccc3C2=O)C(=O)N1 (stereo not shown) [Example 24]', '20 to 40%'),
  ('O=C1CCC(N2Cc3cc(-c4cc(CN5CCCC5)cc5cncn45)ccc3C2=O)C(=O)N1 (stereo not shown) [Example 1]', '60 to 80%'),
  ('CC(C)Nc1n[nH]c2c(CN3CCCC3)cc(-c3ccc4c(c3)CN(C3CCC(=O)NC3=O)C4=O)nc12 (stereo not shown) [Example 193]', '40 to 60%'),
  ('O=C1CCC(N2Cc3cc(-c4nc5[nH]ccc5c(CN5CCCC5)c4Cl)ccc3C2=O)C(=O)N1 (stereo not shown) [Example 221]', '> 80%'),
  ('O=C1CCC(N2Cc3cc(-c4cc(CN5CC(F)C5)c5ccn(C6COC6)c5n4)ccc3C2=O)C(=O)N1 (stereo not shown) [Example 161]', '60 to 80%'),
  ('Cn1cnc2c(-c3ccc4c(c3)CN(C3CCC(=O)NC3=O)C4=O)cc(CNCCc3ccccc3Cl)cc21 (stereo not shown) [Example 51]', '20 to 40%');

Would you kindly look at the next entry?
In one line, give reported Dmax of the entry COC1CCN(Cc2cc(-c3ccc4c(c3F)CN(C3CCC(=O)NC3=O)C4=O)nc3c(NC(C)C)n[nH]c23)CC1 (stereo not shown) [Example 283] .
> 80%

Attribution: patent US20250214991A1
